Sequence of the target: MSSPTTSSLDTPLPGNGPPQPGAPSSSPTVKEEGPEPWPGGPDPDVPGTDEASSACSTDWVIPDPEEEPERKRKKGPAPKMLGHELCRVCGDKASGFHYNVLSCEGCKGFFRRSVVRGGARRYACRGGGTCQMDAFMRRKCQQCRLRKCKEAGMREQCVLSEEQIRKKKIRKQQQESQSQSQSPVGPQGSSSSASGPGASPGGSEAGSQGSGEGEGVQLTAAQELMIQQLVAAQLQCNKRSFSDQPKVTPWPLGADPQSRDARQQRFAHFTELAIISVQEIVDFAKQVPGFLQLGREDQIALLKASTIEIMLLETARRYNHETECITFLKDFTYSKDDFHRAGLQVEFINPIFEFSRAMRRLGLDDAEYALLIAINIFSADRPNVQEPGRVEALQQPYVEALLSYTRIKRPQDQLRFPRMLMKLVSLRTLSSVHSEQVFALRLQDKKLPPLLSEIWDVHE
I'd appreciate it if you marked entries fulfilled when IC50 is lower than 200 nM and not fulfilled when it is not.

*Q* Decide: IC50 of CCCc1c(OCCCn2ccc3cc(CCC(=O)O)ccc32)ccc2c(C(F)(F)F)noc12 strictly below 200 nM?
*A* fulfilled

*Q* Determine whether this compound shows IC50 lower than 200 nM (ties excluded): CCCc1c(OCCCn2ccc3cc(CC(=O)O)ccc32)ccc2c(C(F)(F)F)noc12
*A* fulfilled

*Q* Decide: IC50 of CCCc1c(OCCCn2nnc3cc(CC(=O)O)ccc32)ccc2c(C(F)(F)F)noc12 strictly below 200 nM?
*A* not fulfilled

###

organism: Mus musculus; conditions: in vivo
Use criterion met when the recorded AUC is no lower than 3 µM·kg·h/mg; use criterion not met when it is lower.

Previously resolved entries follow.
- structureNotation: "CCCc1c(OCCCN2C(=O)Cc3cc(CC(=O)O)ccc32)ccc2c(C(F)(F)F)noc12"
  labelClass: "criterion not met"
- structureNotation: "CCCc1c(OCCCn2ccc3cc(CC(=O)O)ccc32)ccc2c(C(F)(F)F)noc12"
  labelClass: "criterion not met"
- structureNotation: "O=C(O)Cc1cccc(OCCCN(Cc2cccc(C(F)(F)F)c2Cl)CC(c2ccccc2)c2ccccc2)c1"
  labelClass: "criterion not met"
- structureNotation: "CCCc1c(OCCCN(C)c2cnc(CC(=O)O)cn2)ccc2c(C(F)(F)F)noc12"
  labelClass: "criterion met"

*Q* Check if AUC >= 3 µM·kg·h/mg (inclusive). Item: CCCc1c(OCCCN(C)c2ncc(CC(=O)O)s2)ccc2c(C(F)(F)F)noc12
*A* criterion met

###

target: Peroxisome proliferator-activated receptor delta (Homo sapiens, UniProt Q03181)
Sequence (Q03181 whole entry): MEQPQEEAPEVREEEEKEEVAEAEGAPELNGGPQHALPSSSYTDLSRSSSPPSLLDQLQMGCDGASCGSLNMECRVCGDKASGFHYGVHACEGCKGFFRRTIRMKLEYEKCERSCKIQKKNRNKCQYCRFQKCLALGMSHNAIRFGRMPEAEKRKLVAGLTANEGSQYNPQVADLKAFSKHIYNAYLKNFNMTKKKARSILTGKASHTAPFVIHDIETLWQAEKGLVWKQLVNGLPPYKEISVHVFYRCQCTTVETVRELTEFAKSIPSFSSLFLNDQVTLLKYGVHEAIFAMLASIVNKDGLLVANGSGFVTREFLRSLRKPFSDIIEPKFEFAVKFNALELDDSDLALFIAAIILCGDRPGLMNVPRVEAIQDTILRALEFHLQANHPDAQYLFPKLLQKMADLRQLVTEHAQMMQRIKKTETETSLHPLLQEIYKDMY
pIC50: −log10 of the molar value.
Please mark yes (1) if the recorded pIC50 is equal to or greater than 7, and no (0) if it falls below.

- structureNotation: "CCCc1c(OCCCN(C)c2ccc(CC(=O)O)cc2)ccc2c(C(F)(F)F)noc12"
  labelClass: "no (0)"
- structureNotation: "CCCc1c(OCCCOc2ccc(CC(=O)O)cc2)ccc2c(C(F)(F)F)noc12"
  labelClass: "yes (1)"

*Q* Does CCCc1c(OCCCn2cnc3cc(CC(=O)O)ccc32)ccc2c(C(F)(F)F)noc12 have a reported pIC50 of at least 7?
*A* no (0)

*Q* Does the reported pIC50 for CCCc1c(OCCCSc2ccc(CC(=O)O)cc2Cl)ccc2c(C(F)(F)F)noc12 fall at or above the 7 mark?
*A* yes (1)

*Q* Quick check, pIC50 >= 7? CCCc1c(OCCCN(C)c2ccc(CC(=O)O)c(Cl)c2)ccc2c(C(F)(F)F)noc12
*A* no (0)

*Q* Identify whether the reported pIC50 of the following compound is 7 or greater: CCCc1c(OCCCN(C)c2ccc(CC(=O)O)cc2Cl)ccc2c(C(F)(F)F)noc12
*A* yes (1)

*Q* Decide: pIC50 of CCCc1c(OCCCN(C)c2ccc(CC(=O)O)c(C(F)(F)F)c2)ccc2c(C(F)(F)F)noc12 >= 7?
*A* no (0)

*Q* Decide: is the reported value of pIC50 for CCCc1c(OCCCN(CC)c2ccc(CC(=O)O)cc2)ccc2c(C(F)(F)F)noc12 equal to or greater than 7?
*A* no (0)
